assayProtocol: refractive index (Na D-line) (dimensionless); xn = mol fraction of the nth substance listed
conditionParameters: 318.15 K; 100.5 kPa; Liquid; Standard Abbe refractometry; x1 = 0.55
parameter: refractive index

Inquiry: What value of refractive index has been reported for the following compound? CC(=O)OCCC(C)C [3-methylbutyl ethanoate] + CCO
Reply text: 1.37944

Inquiry: What value of refractive index has been reported for the following compound? CCCC(=O)OCCC(C)C [3-methylbutyl butanoate] + CCO
Reply text: 1.3891

Inquiry: What value of refractive index has been reported for the following compound? CCCCCCCC(=O)OCC [ethyl octanoate] + CCO
Reply text: 1.39591

Inquiry: What value of refractive index has been reported for the following compound? CCOC(=O)c1ccccc1 [ethyl benzoate] + CCO
Reply text: 1.45918

Inquiry: What value of refractive index has been reported for the following compound? CCCCCC(=O)OCC [ethyl hexanoate] + CCO
Reply text: 1.38564

Inquiry: What value of refractive index has been reported for the following compound? CCOC(=O)Cc1ccccc1 [ethyl phenylacetate] + CCO
Reply text: 1.45524
